# System: Salmonella typhimurium TA98
# assay.summary: Preincubation Ames test, strain TA98
# Format: cell-based
# study.conditions: strain TA98; 30 vs 60 min
// reported Effectiveness of time of preincubation for most effective S9 for each item listed
quantity: Effectiveness of time of preincubation for most effective S9 (min = 30min)

compound	reported
C[C@H]1CN(N=O)CCc2ccc(Cl)cc21	60
CC(C)N(CC(O)COc1cccc2ccccc12)N=O (stereo not shown)	60

====

# Test system: Salmonella typhimurium TA100
# assay.summary: Preincubation Ames test, strain TA100
# Assay type: cell-based
# study.conditions: strain TA100; 30 vs 60 min
quantity: Effectiveness of time of preincubation for most effective S9

molecule	reported
CN(CCC(Oc1ccc(C(F)(F)F)cc1)c1ccccc1)N=O (stereo not drawn)	30min only
CN(CCC(Oc1cccc2ccccc12)c1cccs1)N=O (stereo not drawn)	30min >60min
CN(C)N=O [SM-1, N,N-Dimethylnitrous amide]	60min >30min
